- Tested on: Enterococcus faecalis
- test-method-notes: microbe, parasite or virus in culture
- Format: functional
- setup-conditions: ATCC 19433
- Description: Antibacterial activity against vancomycin-sensitive Enterococcus faecalis ATCC 19433 assessed as growth inhibition by CLSI broth microdilution method
1 if MIC90 is below 2 mg/L. 0 if not; exact matches included in 0.

Exam item: Given the entry CN(C)[C@@H]1C(O)=C(C(N)=O)C(=O)[C@@]2(O)C(O)=C3C(=O)c4c(O)cccc4[C@@](C)(O)[C@H]3C[C@@H]12 [TETRACYCLINE] , would its reported MIC90 be below 2 mg/L?
Marked response: 1

New cases:
Exam item: Consider "C[N+](C)(C)c1ccc(-c2ccc3c(-c4ccc(F)cc4)cccc3c2)cc1.[I-]" . Does its MIC90 lie strictly below 2 mg/L?
Marked response: 0

Exam item: Does the reported MIC90 of the following compound sit strictly below 2 mg/L? CN[C@H](CC(C)C)C(=O)N[C@H]1C(=O)N[C@@H](CC(N)=O)C(=O)N[C@H]2C(=O)N[C@H]3C(=O)N[C@H](C(=O)N[C@H](C(=O)O)c4cc(O)cc(O)c4-c4cc3ccc4O)[C@H](O)c3ccc(c(Cl)c3)Oc3cc2cc(c3O[C@@H]2O[C@H](CO)[C@@H](O)[C@H](O)[C@H]2O[C@H]2C[C@](C)(N)[C@H](O)[C@H](C)O2)Oc2ccc(cc2Cl)[C@H]1O [VANCOMYCIN]
Marked response: 1

Exam item: Hello, is MIC90 of the following compound strictly smaller than 2 mg/L? "CN(C)Cc1cccc(-c2ccc3c(-c4cccc(-c5ccccc5)c4)cccc3c2)c1"
Marked response: 0

Exam item: Quick check: MIC90 of "CC(C)(C)c1ccc(-c2cccc3cc(-c4ccccc4N)ccc23)cc1" under 2 mg/L?
Marked response: 0

Exam item: Please let me know if "CC(C)(C)c1ccc(-c2cccc3cc(-c4ccccc4C[N+](C)(C)C)ccc23)cc1.[I-]" shows MIC90 below 2 mg/L.
Marked response: 0

====

- System: Enterococcus faecalis
- test-method-notes: Antibacterial activity against vancomycin-resistant Enterococcus faecalis ATCC 51575 assessed as growth inhibition by CLSI broth microdilution method
- Assay type: functional
Listed below: MIC90 values for each entry.
Lab book: enter the figure in mg/L, no units written.

Here are 4 compounds together with their reported answers.
Exam item: Value lookup for MIC90; key = C[n+]1cc2c3c(ccc2c2ccc4cc5c(cc4c21)OCO5)OCO3 [SANGUINARIUM]
Marked response: 16

Exam item: MIC90 lookup needed for "C[N+](C)(C)c1cccc(-c2ccc3c(-c4cccc(-c5ccccc5)c4)cccc3c2)c1.[I-]" , thanks.
Marked response: 2

Exam item: I am curious: what MIC90 value has been reported for "CC(C)(C)c1ccc(-c2cccc3cc(-c4cccc([N+](C)(C)C)c4)ccc23)cc1.[I-]" ?
Marked response: 2

Exam item: Need MIC90 of "COC(=O)c1ccc(-c2ccc3c(-c4ccc(C(C)(C)C)cc4)cccc3c2)c(CN)c1" , thanks.
Marked response: 16

Next up:
Exam item: I am curious: what MIC90 value has been reported for "NCc1cccc(-c2ccc3c(-c4cccc(-c5ccccc5)c4)cccc3c2)c1" ?
Marked response: 8

====

Each record here notes measured MIC90.
- Tested on: Enterococcus faecalis
- test-method-notes: microbe, parasite or virus in culture
- Type: functional
- setup-conditions: ATCC 19433
Please give a number only; it is taken to be in µg/mL.

Solved cases below.
Exam item: Quick one: MIC90 for "NCc1cccc(-c2ccc3c(-c4cccc(-c5ccccc5)c4)cccc3c2)c1" ?
Marked response: 4

Exam item: Value lookup for MIC90; key = Cc1onc(-c2ccccc2)c1C(=O)N[C@@H]1C(=O)N2[C@@H]1SC(C)(C)[C@@H]2C(=O)O [OXACILLIN]
Marked response: 8

Exam item: Find the recorded MIC90 belonging to "C[N+](C)(C)c1cccc(-c2ccc3c(-c4ccc(-c5ccccc5)cc4)cccc3c2)c1.[I-]" and report it.
Marked response: 2

Exam item: Endpoint output: MIC90 of "C[N+](C)(C)c1cccc(-c2ccc3c(-c4ccc(F)cc4)cccc3c2)c1.[I-]" . Value?
Marked response: 8

Now take the following compound into account.
Exam item: Given the compound "C[N+](C)(C)c1ccc(-c2ccc3c(-c4cccc(-c5ccccc5)c4)cccc3c2)cc1.[I-]" , what is its reported MIC90?
Marked response: 2
